details: Crystal 1; DTA
Numbers after ± are expanded uncertainties.
# Normal melting temperature listing for each entry below
RECORDED_METRIC: Normal melting temperature

[[record]]
structure_string = "OC[C@H]1O[C@@](CO)(O[C@H]2O[C@H](CO)[C@@H](O)[C@H](O)[C@H]2O)[C@@H](O)[C@@H]1O"
recorded_metric = "Normal melting temperature"
readout_value = "190.90 ± 2 °C"

[[record]]
structure_string = "Cn1c(=O)c2c(ncn2C)n(C)c1=O"
recorded_metric = "Normal melting temperature"
readout_value = "236.20 ± 2 °C"

[[record]]
structure_string = "O=C[C@H](O)[C@@H](O)[C@H](O)[C@H](O)CO"
recorded_metric = "Normal melting temperature"
readout_value = "162.10 ± 2 °C"

[[record]]
structure_string = "OC[C@@H](O)[C@@H](O)[C@H](O)[C@@H](O)CO"
recorded_metric = "Normal melting temperature"
readout_value = "99.70 ± 2 °C"

[[record]]
structure_string = "NCC(=O)O"
recorded_metric = "Normal melting temperature"
readout_value = "254.70 ± 2 °C"

